# Test system: Histophilus somni
# PROTOCOL_TEXT: minimum inhibitory concentration (MIC)
# DETAILS: isolate (source animal id): 183
MEASURED_QUANTITY: minimum inhibitory concentration (µg/mL)
Form entry: value (µg/mL) — number only.

CC[C@H]1OC(=O)C[C@@H](O)[C@H](C)[C@@H](O[C@@H]2O[C@H](C)[C@@H](O[C@H]3C[C@@](C)(O)[C@@H](O)[C@H](C)O3)[C@H](N(C)C)[C@H]2O)[C@@H](CC=O)C[C@@H](C)C(=O)/C=C/C(C)=C/[C@@H]1CO[C@@H]1O[C@H](C)[C@@H](O)[C@@H](OC)[C@H]1OC [Tylosin] :: 16
CC[C@H]1OC(=O)C[C@@H](O)[C@H](C)[C@@H](O[C@@H]2O[C@H](C)[C@@H](O)[C@H](N(C)C)[C@H]2O)[C@@H](CCN2CCCCC2)C[C@@H](C)C(=O)/C=C/C(C)=C/[C@@H]1CN1CCCCC1 [Tildipirosin] :: 2

Field: next molecule
Here C=C[C@]1(C)C[C@@H](OC(=O)CSCCN(CC)CC)[C@]2(C)[C@H](C)CC[C@]3(CCC(=O)[C@H]32)[C@@H](C)[C@@H]1O [Tiamulin] was tested on Histophilus somni, and its minimum inhibitory concentration came to 2

###

# System: Pasteurella multocida
# PROTOCOL_TEXT: minimum inhibitory concentration (MIC)
# DETAILS: isolate (source animal id): 179
MEASURED_QUANTITY: minimum inhibitory concentration

Recorded results for 4 molecules are shown here.
CNC(C)C1CCC(N)C(OC2C(N)CC(N)C(OC3OCC(C)(O)C(NC)C3O)C2O)O1 (stereo not given) [Gentamicin] :: 4 µg/mL
CC[C@H]1OC(=O)C[C@@H](O)[C@H](C)[C@@H](O[C@@H]2O[C@H](C)[C@@H](O)[C@H](N(C)C)[C@H]2O)[C@@H](CCN2C[C@H](C)C[C@H](C)C2)C[C@@H](C)C(=O)/C=C/C(C)=C/[C@@H]1CO[C@@H]1O[C@H](C)[C@@H](O)[C@@H](OC)[C@H]1OC [Tilmicosin] :: 4 µg/mL
CC[C@H]1OC(=O)C[C@@H](O)[C@H](C)[C@@H](O[C@@H]2O[C@H](C)[C@@H](O[C@H]3C[C@@](C)(O)[C@@H](O)[C@H](C)O3)[C@H](N(C)C)[C@H]2O)[C@@H](CC=O)C[C@@H](C)C(=O)/C=C/C(C)=C/[C@@H]1CO[C@@H]1O[C@H](C)[C@@H](O)[C@@H](OC)[C@H]1OC [Tylosin] :: 32 µg/mL
CC1(C)S[C@@H]2[C@H](NC(=O)[C@H](N)c3ccccc3)C(=O)N2[C@H]1C(=O)O [Ampicillin] :: ≤ 0.25 µg/mL

Consider CCN1CCN(c2cc3c(cc2F)c(=O)c(C(=O)O)cn3C2CC2)CC1 [Enrofloxacin] . Its measured minimum inhibitory concentration is ≤ 0.12 µg/mL

###

# Test system: Pasteurella multocida
# PROTOCOL_TEXT: minimum inhibitory concentration (MIC)
# DETAILS: isolate (source animal id): 171
Below, each entry is listed with its recorded minimum inhibitory concentration.

CC[C@H]1OC(=O)C[C@@H](O)[C@H](C)[C@@H](O[C@@H]2O[C@H](C)[C@@H](O[C@H]3C[C@@](C)(O)[C@@H](O)[C@H](C)O3)[C@H](N(C)C)[C@H]2O)[C@@H](CC=O)C[C@@H](C)C(=O)/C=C/C(C)=C/[C@@H]1CO[C@@H]1O[C@H](C)[C@@H](O)[C@@H](OC)[C@H]1OC :: > 32 µg/mL

Consider `CCN1CCN(c2cc3c(cc2F)c(=O)c(C(=O)O)cn3C2CC2)CC1` . Its measured minimum inhibitory concentration is ≤ 0.12 µg/mL

Consider CNC(C)C1CCC(N)C(OC2C(N)CC(N)C(OC3OCC(C)(O)C(NC)C3O)C2O)O1 (centres undefined) . Its measured minimum inhibitory concentration is 4 µg/mL

Consider `CN[C@@H]1[C@H](O)[C@H](NC)[C@H]2O[C@@]3(O)C(=O)C[C@@H](C)O[C@H]3O[C@@H]2[C@H]1O` . Its measured minimum inhibitory concentration is 32 µg/mL
